Item-by-item account of Post-emergence action against AMARE in %
Tested on: Amaranthus retroflexus (AMARE)
Assay: Post-emergence herbicidal action against AMARE
Format: in vivo
Conditions: 80 g/ha, visual rating about 3 weeks after treatment vs untreated controls (100% = plants have died, 0% = like control plants)
# unit: % | format: bare number

These recorded examples may help you get a feel for the data.
{"Compound": "CCOC(=O)[C@@H](C)Oc1nn(-c2ncccc2F)c(-c2ccc(F)nc2)c1F", "Target Or System": "Amaranthus retroflexus (AMARE)", "Post-emergence action against AMARE in % / %": 80}
{"Compound": "CCOC(=O)CN(C)S(=O)(=O)NC(=O)COc1nn(-c2ccccn2)c(-c2ccc(F)nc2)c1Br", "Target Or System": "Amaranthus retroflexus (AMARE)", "Post-emergence action against AMARE in % / %": 80}

Query block: // map `O=C(COc1nn(-c2ncccc2F)c(-c2ccc(F)nc2)c1C1CC1)OCC1CC1` to recorded Post-emergence action against AMARE in % (system: Amaranthus retroflexus (AMARE))
Result block: 90
